Target: Mouse ACVR2A (mouse, UniProt P27038 20-135, limits assumed); note: test concentration or dose not given here
Sequence (P27038 20-135 limits assumed): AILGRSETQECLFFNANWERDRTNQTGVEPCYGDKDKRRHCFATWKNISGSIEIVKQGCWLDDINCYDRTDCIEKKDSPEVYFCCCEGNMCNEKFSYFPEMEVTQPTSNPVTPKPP
Assay: ELISA
# if value of optical density reaches 3 OD, tag satisfied; if it stays below, tag not satisfied

[Q] Dear colleague, could you confirm whether 371_F01 (antibody, V domains shown) VH: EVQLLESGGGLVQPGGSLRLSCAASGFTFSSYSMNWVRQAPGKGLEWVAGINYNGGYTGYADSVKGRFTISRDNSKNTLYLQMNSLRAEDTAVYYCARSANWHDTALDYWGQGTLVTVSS VL: DIQMTQSPSSLSASVGDRVTITCRASQSILTYVNWYQQKPGKAPKLVIYAATSLASGVPSRFSGSGSGTDFTLTISSLQPEDFATYYCQQSYNNPLTFGGGTKVEIK has optical density at or above 3 OD?
[A] not satisfied

[Q] Dear colleague, could you confirm whether 370_F07 (antibody, V domains shown) VH: EVQLLESGGGLVQPGGSLRLSCAASGFTFDSYSMNWVRQAPGKGLEWVSNINYNGGYKGYADSVKGRFTISRDNSKNTLYLQMNSLRAEDTAVYYCARSANWHDTALDYWGQGTLVTVSS VL: DIQMTQSPSSLSASVGDRVTITCRASQSILSYLNWYQQKPGKAPKLLIYAATSRASGVPSRFSGSGSGTDFTLTISSLQPEDFATYYCQQSYNLPLTFGGGTKVEIK has optical density at or above 3 OD?
[A] satisfied

[Q] Dear colleague, could you confirm whether 373_H01 (antibody, V domains shown) VH: EVQLLESGGGLVQPGGSLRLSCAASGFTFDSYSMNWVRQAPGKGLEWVANINYNGGYTGYADSVKGRFTISRDNSKNTLYLQMNSLRAEDTAVYYCARSANWHDTALDYWGQGTLVTVSS VL: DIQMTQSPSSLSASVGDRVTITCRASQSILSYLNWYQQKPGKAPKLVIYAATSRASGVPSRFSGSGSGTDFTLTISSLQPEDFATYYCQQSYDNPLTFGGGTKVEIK has optical density at or above 3 OD?
[A] satisfied

[Q] Dear colleague, could you confirm whether 370_H01 (antibody, V domains shown) VH: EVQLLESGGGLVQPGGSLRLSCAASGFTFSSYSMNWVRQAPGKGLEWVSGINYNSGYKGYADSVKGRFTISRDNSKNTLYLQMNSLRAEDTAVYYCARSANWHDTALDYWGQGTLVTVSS VL: DIQMTQSPSSLSASVGDRVTITCRASQSIISYLNWYQQKPGKAPKLLIYAVTSRASGVPSRFSGSGSGTDFTLTISSLQPEDFATYYCQQSYDTPLTFGGGTKVEIK has optical density at or above 3 OD?
[A] satisfied

[Q] Dear colleague, could you confirm whether 367_F07 (antibody, V domains shown) VH: EVQLLESGGGLVQPGGSLRLSCAASGFTFDSYGMHWVRQAPGKGLEWVANINYNGGYTGYADSVKGRFTISRDNSKNTLYLQMNSLRAEDTAVYYCARSANWHDTALDYWGQGTLVTVSS VL: DIQMTQSPSSLSASVGDRVTITCRASQSIISYVNWYQQKPGKAPKLLIYAATSRASGVPSRFSGSGSGTDFTLTISSLQPEDFATYYCQQSYETPLTFGGGTKVEIK has optical density at or above 3 OD?
[A] not satisfied
